target: cAMP-dependent protein kinase catalytic subunit alpha (Homo sapiens) (UniProt P17612); assay: Inhibition of full length human PKAcalpha assessed as remaining activity at 1 uM using LRRASLG as substrate incubated for 40 mins by scintillation counting method relative to control
Overview of recorded Activity for various molecules
Observed Property: Activity (%)

• CC(C)NCC(C(=O)N1CCN(c2ncnc3sc4c(c23)CCN(C(=O)N(C)C)C4)CC1)c1ccc(Cl)cc1 (stereo not drawn) = 80
• CN1CCc2c(sc3ncnc(N4CCN(C(=O)C(CNC5CCCCC5)c5ccc(Cl)cc5)CC4)c23)C1 (stereo not drawn) = 95
• CCNCC(C(=O)N1CCN(c2ncnc3sc4c(c23)CCN(C)C4)CC1)c1ccc(Cl)cc1 (stereo not drawn) = 91
• CCN1CCc2c(sc3ncnc(N4CCN(C(=O)C(CNC(C)C)c5ccc(Cl)cc5)CC4)c23)C1 (stereo not drawn) = 87
• CC(C)NCC(C(=O)N1CCN(c2ncnc3sc4c(c23)CCC4)CC1)c1ccc(F)cc1 (stereo not drawn) = 77
• CC(C)NCC(C(=O)N1CCN(c2ncnc3sc4c(c23)CCC4)CC1)c1ccc(Br)cc1 (stereo not drawn) = 23
• CC(C)NCC(C(=O)N1CCN(c2ncnc3sc4c(c23)CCN(C)C4)CC1)c1ccccc1Cl (stereo not drawn) = 86
• CCCN1CCc2c(sc3ncnc(N4CCN(C(=O)C(CNC(C)C)c5ccc(Cl)cc5)CC4)c23)C1 (stereo not drawn) = 88
• CC(C)NCC(C(=O)N1CCN(c2ncnc3sc4c(c23)CCC4)CC1)c1ccccc1Cl (stereo not drawn) = 95
• COc1ccc(C(CNC(C)C)C(=O)N2CCN(c3ncnc4sc5c(c34)CCN(C)C5)CC2)cc1 (stereo not drawn) = 95
• CC(C)NCC(C(=O)N1CCN(c2ncnc3sc4c(c23)CCN(C)C4)CC1)c1ccc(F)cc1 (stereo not drawn) = 97
• CC(C)NCC(C(=O)N1CCN(c2ncnc3sc4c(c23)CCN(C)C4)CC1)c1ccc(Cl)cc1 (stereo not drawn) = 72
• CC(C)NCC(C(=O)N1CCN(c2ncnc3sc4c(c23)CCOC4)CC1)c1ccc(Cl)cc1 (stereo not drawn) = 78
• CCCCNCC(C(=O)N1CCN(c2ncnc3sc4c(c23)CCN(C)C4)CC1)c1ccc(Cl)cc1 (stereo not drawn) = 81
• CC(C)NCC(C(=O)N1CCN(c2ncnc3sc4c(c23)CCC4)CC1)c1ccc(Cl)cc1 (stereo not drawn) = 45
• CCCCNCC(C(=O)N1CCN(c2ncnc3sc4c(c23)CCC4)CC1)c1ccc(Cl)cc1 (stereo not drawn) = 37
• COc1ccc(C(CNC(C)C)C(=O)N2CCN(c3ncnc4sc5c(c34)CCC5)CC2)cc1 (stereo not drawn) = 66
• CC(C)NCC(C(=O)N1CCN(c2ncnc3sc4c(c23)CCN(C)C4)CC1)c1ccc(Br)cc1 (stereo not drawn) = 88
